system: Anti-Target CES; assay: PME-1 inhibitors in HeLa proteome, late-stage follow-up, selectivity assay, cell lysate, gel-based competitive ABPP, fluorescence, powder samples (AID 463149); details: HeLa soluble proteome, FP-Rh fluorescence, measured here: Anti-Target CES, at 20 µM, stronger effect = higher value;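 further: 0% = DMSO-treated band intensity and 100% = blank gel background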
readout_name: inhibition

Examples with answers:
| chemical_string | observed |
| --- | --- |
| COC(=O)N1C(=O)[C@](c2ccc(OC)cc2)(C(C)C)N1C(=O)OC | 0% |
| COC(=O)N1C(=O)[C@@](Cc2ccccc2)(c2ccccc2)N1C(=O)OC | > 50% |
| CCOC(=O)N1C(=O)[C@](CC)(c2ccccc2)N1C(=O)OCC | > 50% |

Identify inhibition associated with the compound "CC[C@]1(c2ccccc2C)C(=O)N(C(=O)OC)N1C(=O)OC"
> 50%

Identify inhibition associated with the compound "CCOC(=O)N1C(=O)[C@@](CC)(c2ccccc2)N1C(=O)OCC"
> 50%

Identify inhibition associated with the compound "COC(=O)N1C(=O)[C@](c2ccsc2)(C(C)C)N1C(=O)OC"
0%

Identify inhibition associated with the compound "COC(=O)N1C(=O)[C@](Cc2ccccc2)(c2ccccc2)N1C(=O)OC"
> 50%

Identify inhibition associated with the compound "CC[C@]1(c2cccc(C)c2)C(=O)N(C(=O)OC)N1C(=O)OC"
> 50%

Identify inhibition associated with the compound "COC(=O)N1C(=O)[C@@](c2ccccc2)(C(C)C)N1C(=O)OC"
> 50%

Identify inhibition associated with the compound "CCOC(=O)N1C(=O)[C@@](c2ccc(Cl)cc2)(C(C)C)N1C(=O)OCC"
0%

Identify inhibition associated with the compound "COC(=O)N1C(=O)[C@](c2ccccc2)(C2CCCCC2)N1C(=O)OC"
0%

Identify inhibition associated with the compound "COC(=O)N1C(=O)[C@@](c2ccccc2)(C2CCCCC2)N1C(=O)OC"
0%

Identify inhibition associated with the compound "COC(=O)N1C(=O)[C@@](c2ccccc2)(C2CCCC2)N1C(=O)OC"
0%

Identify inhibition associated with the compound "CC[C@@]1(c2ccccc2)C(=O)N(C(=O)OC)N1C(=O)OC"
> 50%

Identify inhibition associated with the compound "COC(=O)N1C(=O)[C@@](CC(C)C)(c2ccccc2)N1C(=O)OC"
> 50%

Identify inhibition associated with the compound "COC(=O)N1C(=O)[C@](c2ccccc2)(C2CCCC2)N1C(=O)OC"
0%

Identify inhibition associated with the compound "COC(=O)N1C(=O)[C@@](c2ccc(OC)cc2)(C(C)C)N1C(=O)OC"
> 50%

Identify inhibition associated with the compound "CC[C@]1(c2ccccc2)C(=O)N(C(=O)OC)N1C(=O)OC"
> 50%

Identify inhibition associated with the compound "COC(=O)N1C(=O)[C@](c2ccccc2)(C(C)C)N1C(=O)OC"
0%

Identify inhibition associated with the compound "COC(=O)N1C(=O)[C@](CC(C)C)(c2ccccc2)N1C(=O)OC"
> 50%

Identify inhibition associated with the compound "CC[C@@]1(c2cccc(C)c2)C(=O)N(C(=O)OC)N1C(=O)OC"
> 50%

Identify inhibition associated with the compound "CC[C@@]1(c2ccccc2C)C(=O)N(C(=O)OC)N1C(=O)OC"
> 50%

Identify inhibition associated with the compound "CCOC(=O)N1C(=O)[C@](c2ccc(Cl)cc2)(C(C)C)N1C(=O)OCC"
0%

====

Reported inhibition by item:
biological target: Protein phosphatase methylesterase 1 (Homo sapiens) (UniProt Q9Y570); assay: PME-1 inhibitors in HeLa proteome, late-stage follow-up, selectivity assay, cell lysate, gel-based competitive ABPP, fluorescence, powder samples (AID 463149); details: HeLa soluble proteome, FP-Rh fluorescence, PME-1, inhibition, at 1 µM, stronger effect = higher value;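 further: 0% = DMSO-treated band intensity and 100% = blank gel background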
Sequence (Q9Y570 whole entry, looked up): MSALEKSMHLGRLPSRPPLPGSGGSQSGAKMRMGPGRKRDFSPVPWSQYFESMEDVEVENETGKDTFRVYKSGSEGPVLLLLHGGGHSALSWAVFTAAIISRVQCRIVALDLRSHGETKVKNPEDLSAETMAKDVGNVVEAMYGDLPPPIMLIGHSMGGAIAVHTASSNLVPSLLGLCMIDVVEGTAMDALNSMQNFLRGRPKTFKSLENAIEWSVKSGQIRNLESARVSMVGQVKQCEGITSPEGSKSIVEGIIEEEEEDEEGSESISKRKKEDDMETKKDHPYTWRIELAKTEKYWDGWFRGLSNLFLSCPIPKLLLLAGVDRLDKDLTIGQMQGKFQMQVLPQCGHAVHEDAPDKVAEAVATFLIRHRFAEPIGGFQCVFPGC
Report as a plain number; the unit % is understood.

Identify inhibition associated with the molecule "COC(=O)N1C(=O)[C@](c2ccc(OC)cc2)(C(C)C)N1C(=O)OC"
100

Identify inhibition associated with the molecule "CCOC(=O)N1C(=O)[C@](c2ccc(Cl)cc2)(C(C)C)N1C(=O)OCC"
50

Identify inhibition associated with the molecule "COC(=O)N1C(=O)[C@](c2ccccc2)(C2CCCC2)N1C(=O)OC"
100

Identify inhibition associated with the molecule "COC(=O)N1C(=O)[C@@](c2ccccc2)(C2CCCC2)N1C(=O)OC"
100

Identify inhibition associated with the molecule "COC(=O)N1C(=O)[C@@](c2ccccc2)(C2CCCCC2)N1C(=O)OC"
100

====

biological target: Protein phosphatase methylesterase 1 (Homo sapiens); assay: PME-1 inhibitors in HeLa proteome, late-stage follow-up, selectivity assay, cell lysate, gel-based competitive ABPP, fluorescence, powder samples (AID 463149); conditions: HeLa soluble proteome, FP-Rh fluorescence, PME-1, inhibition, at 20 µM, stronger effect = higher value;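 further: 0% = DMSO-treated band intensity and 100% = blank gel background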
readout_name: inhibition (%)
Report as a plain number; the unit % is understood.

Examples with answers:
| chemical_string | system_under_test | observed |
| --- | --- | --- |
| COC(=O)N1C(=O)[C@](c2ccccc2)(C2CCCC2)N1C(=O)OC | Protein phosphatase methylesterase 1 (Homo sapiens) | 100 |
| CC[C@@]1(c2ccccc2)C(=O)N(C(=O)OC)N1C(=O)OC | Protein phosphatase methylesterase 1 (Homo sapiens) | 100 |
| COC(=O)N1C(=O)[C@@](Cc2ccccc2)(c2ccccc2)N1C(=O)OC | Protein phosphatase methylesterase 1 (Homo sapiens) | 50 |
| COC(=O)N1C(=O)[C@](c2ccccc2)(C2CCCCC2)N1C(=O)OC | Protein phosphatase methylesterase 1 (Homo sapiens) | 100 |
| CCOC(=O)N1C(=O)[C@@](CC)(c2ccccc2)N1C(=O)OCC | Protein phosphatase methylesterase 1 (Homo sapiens) | 0 |

Identify inhibition associated with the compound "COC(=O)N1C(=O)[C@](c2ccc(OC)cc2)(C(C)C)N1C(=O)OC"
100

Identify inhibition associated with the compound "COC(=O)N1C(=O)[C@@](c2ccc(OC)cc2)(C(C)C)N1C(=O)OC"
50

Identify inhibition associated with the compound "COC(=O)N1C(=O)[C@@](c2ccccc2)(C2CCCCC2)N1C(=O)OC"
100

====

target: Protein phosphatase methylesterase 1 (Homo sapiens) (UniProt Q9Y570); test: PME-1 inhibitors in HeLa proteome, late-stage follow-up, selectivity assay, cell lysate, gel-based competitive ABPP, fluorescence, powder samples (AID 463149); conditions: HeLa soluble proteome, FP-Rh fluorescence, PME-1, inhibition, at 1 µM, stronger effect = higher value;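 further: 0% = DMSO-treated band intensity and 100% = blank gel background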
Reported inhibition by item:
Report as a plain number; the unit % is understood.

Examples with answers:
| chemical_string | quantity_unit | inhibition |
| --- | --- | --- |
| CC[C@]1(c2cccc(C)c2)C(=O)N(C(=O)OC)N1C(=O)OC | % | 50 |
| CC[C@@]1(c2ccccc2C)C(=O)N(C(=O)OC)N1C(=O)OC | % | 50 |
| CC[C@]1(c2ccccc2)C(=O)N(C(=O)OC)N1C(=O)OC | % | 75 |
| COC(=O)N1C(=O)[C@](CC(C)C)(c2ccccc2)N1C(=O)OC | % | 100 |
| CCOC(=O)N1C(=O)[C@@](CC)(c2ccccc2)N1C(=O)OCC | % | 0 |

Identify inhibition associated with the molecule "COC(=O)N1C(=O)[C@@](Cc2ccccc2)(c2ccccc2)N1C(=O)OC"
0

Identify inhibition associated with the molecule "CC[C@@]1(c2ccccc2)C(=O)N(C(=O)OC)N1C(=O)OC"
0

====

target: Protein phosphatase methylesterase 1 (Homo sapiens); test: PME-1 inhibitors in HeLa proteome, late-stage follow-up, selectivity assay, cell lysate, gel-based competitive ABPP, fluorescence, powder samples (AID 463149); conditions: HeLa soluble proteome, FP-Rh fluorescence, PME-1, inhibition, at 20 µM, stronger effect = higher value;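 further: 0% = DMSO-treated band intensity and 100% = blank gel background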
readout_name: inhibition (%)
Report as a plain number; the unit % is understood.

Identify inhibition associated with the compound "CC[C@]1(c2cccc(C)c2)C(=O)N(C(=O)OC)N1C(=O)OC"
100

Identify inhibition associated with the compound "COC(=O)N1C(=O)[C@@](CC(C)C)(c2ccccc2)N1C(=O)OC"
100

Identify inhibition associated with the compound "COC(=O)N1C(=O)[C@](c2ccccc2)(C(C)C)N1C(=O)OC"
100

Identify inhibition associated with the compound "CCOC(=O)N1C(=O)[C@](c2ccc(Cl)cc2)(C(C)C)N1C(=O)OCC"
100

Identify inhibition associated with the compound "COC(=O)N1C(=O)[C@](c2ccsc2)(C(C)C)N1C(=O)OC"
100

====

Reported inhibition by item:
molecular target: Protein phosphatase methylesterase 1 (Homo sapiens); experiment: PME-1 inhibitors in HeLa proteome, late-stage follow-up, selectivity assay, cell lysate, gel-based competitive ABPP, fluorescence, powder samples (AID 463149); details: HeLa soluble proteome, FP-Rh fluorescence, PME-1, inhibition, at 1 µM, stronger effect = higher value;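 further: 0% = DMSO-treated band intensity and 100% = blank gel background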
Report as a plain number; the unit % is understood.

Examples with answers:
| chemical_string | system_under_test | inhibition, % |
| --- | --- | --- |
| COC(=O)N1C(=O)[C@](Cc2ccccc2)(c2ccccc2)N1C(=O)OC | Protein phosphatase methylesterase 1 (Homo sapiens) | 75 |
| COC(=O)N1C(=O)[C@@](CC(C)C)(c2ccccc2)N1C(=O)OC | Protein phosphatase methylesterase 1 (Homo sapiens) | 100 |
| COC(=O)N1C(=O)[C@](c2ccsc2)(C(C)C)N1C(=O)OC | Protein phosphatase methylesterase 1 (Homo sapiens) | 50 |
| COC(=O)N1C(=O)[C@@](c2ccc(OC)cc2)(C(C)C)N1C(=O)OC | Protein phosphatase methylesterase 1 (Homo sapiens) | 0 |
| COC(=O)N1C(=O)[C@@](c2ccccc2)(C(C)C)N1C(=O)OC | Protein phosphatase methylesterase 1 (Homo sapiens) | 0 |
| CCOC(=O)N1C(=O)[C@](CC)(c2ccccc2)N1C(=O)OCC | Protein phosphatase methylesterase 1 (Homo sapiens) | 0 |

Identify inhibition associated with the molecule "CC[C@]1(c2ccccc2C)C(=O)N(C(=O)OC)N1C(=O)OC"
0

Identify inhibition associated with the molecule "CCOC(=O)N1C(=O)[C@@](c2ccc(Cl)cc2)(C(C)C)N1C(=O)OCC"
0

Identify inhibition associated with the molecule "COC(=O)N1C(=O)[C@](c2ccccc2)(C(C)C)N1C(=O)OC"
100

Identify inhibition associated with the molecule "COC(=O)N1C(=O)[C@](c2ccccc2)(C2CCCCC2)N1C(=O)OC"
100

Identify inhibition associated with the molecule "CC[C@@]1(c2cccc(C)c2)C(=O)N(C(=O)OC)N1C(=O)OC"
0
